System: CP329
Assay: qHTS profiling for inhibitors of Plasmodium falciparum proliferation (AID 504749); further: nearly all actives have a fitted effect of over 60% in size
Conditions: P. falciparum in erythrocytes, SYBR Green DNA, 72 h; series mostly up to 28.7 µM
Records with an inconclusive call do not appear. Active and inactive are the calls of the source. The call rests on the fitted dose curve; in most records, active means well fitted inhibition curve with a large enough effect; inconclusive means small, poorly fitted or top-dose-only effect; inactive means flat fitted curve, though single readings scatter.
The reply should be one of these categories: 1.0 (active), 0.0 (inactive)

The examples below pair each entry with its known result.
molecule: C[C@H](CS)C(=O)N1CCC[C@H]1C(=O)O
label: 0.0

molecule: C[N+](C)(C)CCCCCCCCCC[N+](C)(C)C
label: 1.0

molecule: Cc1ccc(S(=O)(=O)NC(=O)NN2CCCCCC2)cc1
label: 0.0

molecule: Cc1nnc(SCC2=C(C(=O)O)N3C(=O)[C@@H](NC(=O)Cn4cnnn4)[C@H]3SC2)s1
label: 0.0

molecule: Cc1nc2c([nH]1)c(=O)n(C)c(=O)n2Cc1ccco1
label: 0.0

molecule: Cc1ccc(Cl)c(Nc2ccccc2C(=O)O)c1Cl
label: 0.0

Ask: Give the logged outcome of this assay for the following molecule: `NC(N)=NC(=O)Cc1c(Cl)cccc1Cl`
Result: 1.0

Ask: Hi team, can someone confirm the assay call for `NC(=Nc1ccccc1)Nc1ccccc1` ?
Result: 0.0

All values here come from PubChem BioAssay (NCATS).
